Listed here: items and their measured residual activity.
EXPERIMENTAL_TARGET: UniProt P49137
Sequence (P49137 whole entry, looked up): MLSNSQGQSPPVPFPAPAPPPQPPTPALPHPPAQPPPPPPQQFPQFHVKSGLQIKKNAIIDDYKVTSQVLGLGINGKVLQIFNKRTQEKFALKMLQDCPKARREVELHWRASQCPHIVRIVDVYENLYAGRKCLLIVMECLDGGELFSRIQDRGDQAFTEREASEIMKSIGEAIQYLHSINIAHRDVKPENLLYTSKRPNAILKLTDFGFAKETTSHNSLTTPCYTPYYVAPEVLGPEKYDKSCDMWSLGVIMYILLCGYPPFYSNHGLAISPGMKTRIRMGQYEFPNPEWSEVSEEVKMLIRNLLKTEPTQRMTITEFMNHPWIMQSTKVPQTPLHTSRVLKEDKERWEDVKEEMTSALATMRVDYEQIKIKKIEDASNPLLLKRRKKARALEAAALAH
EXPERIMENTAL_PROTOCOL: radiometric filter-binding kinase assay
CONDITION_DESCRIPTION: compound 10.0 µM
Returns: string containing the numeric result and its unit.

Example entries begin here.
INSERT INTO results (compound, experimental_target, observable, meas_value) VALUES
  ('O=c1c(O)c(-c2ccc(O)c(O)c2)oc2cc(O)c(O)c(O)c12', 'UniProt P49137', 'residual activity', '53%'),
  ('Cc1ccc(-c2ccc3c(ccc4sc5c(c43)NC[C@@H](C)NC5=O)n2)cn1', 'UniProt P49137', 'residual activity', '2%'),
  ('N#Cc1c(C2CCNCC2)cc(-c2c(O)cccc2OCC2CC2)nc1N', 'UniProt P49137', 'residual activity', '95%'),
  ('FC(F)(F)c1ccc(-c2ccc(Oc3cncc4sc(-c5nn[nH]n5)cc34)cc2)cc1', 'UniProt P49137', 'residual activity', '94%'),
  ('NC(=O)Nc1ccc2c(c1)/C(=C/c1cc(-c3cccnc3)c[nH]1)C(=O)N2', 'UniProt P49137', 'residual activity', '10%'),
  ('COc1ccc2c(c1)c1c3c(c4c5ccccc5n(C)c4c1n2CC(O)CN(C)C)C(=O)NC3=O (stereo not given)', 'UniProt P49137', 'residual activity', '62%'),
  ('C=CC(=O)N1CCC[C@@H](n2nc(-c3ccc(Oc4ccccc4)cc3)c3c(N)ncnc32)C1', 'UniProt P49137', 'residual activity', '90%'),
  ('CN1C(=O)[C@@H](Cc2c[nH]c3ccccc23)NC1=S', 'UniProt P49137', 'residual activity', '96%');

Lab entry: UniProt P49137 assay, compound `Cc1cc(SCc2sc(-c3ccc(C(F)(F)F)cc3)nc2C)ccc1OCC(=O)O` , residual activity = 84%

Lab entry: UniProt P49137 assay, compound `O=S(=O)(c1ccc(F)c2nonc12)N1CCN(c2ncc(C(F)(F)F)cc2Cl)CC1` , residual activity = 86%

----------
EXPERIMENTAL_TARGET: MAP2K2 (human)
EXPERIMENTAL_PROTOCOL: radiometric filter-binding kinase assay
CONDITION_DESCRIPTION: compound 0.01 µM
Listed here: items and their measured residual activity.
Quick note: give the figure in %, leave out the unit.

Example entries begin here.
INSERT INTO results (compound, meas_value) VALUES
  ('CNC(=O)C1[C@H]2O[C@@](C)([C@@H]1N)n1c3ccccc3c3c4c(c5c6ccccc6n2c5c31)C(=O)NC4 (some centres undefined)', 32),
  ('O=C(Nc1nc2cc(C(F)(F)F)cc(NC3CC3)n2n1)c1cccnc1', 90),
  ('COc1ccc(N(C(=O)Nc2c(C)cccc2C)c2cc(Nc3ccc(N4CCN(C)CC4)cc3)ncn2)c(OC)c1', 101);

residual activity for COc1cc(O)c2c(c1)[C@H]1OC1C[C@H](O)[C@H](O)C(=O)/C=C\C[C@H](C)OC2=O (some centres undefined) is 74

----------
EXPERIMENTAL_TARGET: MINK1 (human)
EXPERIMENTAL_PROTOCOL: radiometric filter-binding kinase assay
CONDITION_DESCRIPTION: compound 10.0 µM
Listed here: items and their measured residual activity.
Returns: string containing the numeric result and its unit.

residual activity for `NC(=O)c1ccc(-c2ccc(Oc3cncc4sc(-c5nn[nH]n5)cc34)cc2)cc1` is 21%

residual activity for `Cc1ccc(Sc2cnc(Nc3cccc(Br)n3)s2)cc1C(=O)N1CCN(C(=O)CN)CC1` is 8%

residual activity for O=C(NOCC(O)CO)c1ccc(F)c(F)c1Nc1ccc(I)cc1Cl (stereo not given) is 127%

residual activity for `NC(=O)c1cc(-c2ccnc(NC3CCCCC3)c2)nc(N2CCNCC2)c1` is 2%

residual activity for `N#Cc1c(C2CCNCC2)cc(-c2c(O)cccc2OCC2CC2)nc1N` is 52%

residual activity for `CN1C(=O)[C@@H](Cc2c[nH]c3ccccc23)NC1=S` is 99%

residual activity for `NS(=O)(=O)OC[C@@H]1C[C@@H](n2ccc3c(N[C@H]4CCc5ccccc54)ncnc32)C[C@@H]1O` is 96%
